runDescription: Chemical stability in PBS (HPLC)
Type: physicochemical
conditionSet: HPLC at RT, 9:1 PBS/MeCN solution, 1.0-1.5 mM Tz, 254 nm; read-out: PBS stability t1/2
Procedure: Ten tetrazines of formula (I) (Table 2) were tested in relation to chemical stability in PBS. The results are shown in Table 2 for the chemical half-life was measured by HPLC at RT, in 9:1 PBS/MeCN solution, using 1.0-1.5 mM Tz (a); based on average peak intensities of the corresponding Tz and the corresponding oxadiazoles (the degradation product), at 254 nm.
measureName: half-life (h)

Previously resolved entries follow.
[[record]]
molecule = "COc1ccc(-c2nnc(C[N+](C)(C)c3ccccc3)nn2)cc1.[Br-] [Compound 23]"
readoutunit = "h"
measurement = 2.58

[[record]]
molecule = "COc1ccc(-c2nnc(C[N+](C)(C)c3ccc(OC)cc3)nn2)cc1.[Br-] [Compound 29]"
readoutunit = "h"
measurement = 9.37

[[record]]
molecule = "C[N+](C)(Cc1nnc(-c2ccccc2)nn1)c1ccccc1.[Br-] [Compound 21]"
readoutunit = "h"
measurement = 0.967

[[record]]
molecule = "C[N+](C)(Cc1nnc(-c2ccc(O)cc2)nn1)c1ccccc1.[Br-] [Compound 24]"
readoutunit = "h"
measurement = 4.95

[[record]]
molecule = "C[N+](C)(Cc1nnc(-c2ccc(F)cc2)nn1)c1ccccc1.[Br-] [Compound 20]"
readoutunit = "h"
measurement = 0.797

[[record]]
molecule = "Cc1ccc(-c2nnc(C[N+](C)(C)c3ccccc3)nn2)cc1.[Br-] [Compound 22]"
readoutunit = "h"
measurement = 1.78


1. COc1ccc([N+](C)(C)Cc2nnc(-c3ccccc3)nn2)cc1.[Br-] [Compound 26]
2. C[N+](C)(Cc1nnc(-c2ccccc2)nn1)c1ccc(O)cc1.[Br-] [Compound 27]
3. COc1cccc(-c2nnc(C[N+](C)(C)c3ccccc3)nn2)c1.[Br-] [Compound 19]
4. Cc1ccc([N+](C)(C)Cc2nnc(-c3ccccc3)nn2)cc1.[Br-] [Compound 25]
Order the records so the highest half-life appears first and the lowest last. When ranking, write the labels in the order the request describes. 2, 1, 4, 3

The reported numbers originate from patent EP4603107A1.
